target: T1, 4H2754-AA
T1 chain: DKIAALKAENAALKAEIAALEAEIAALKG
test summary: two-hybrid library CCmax;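 note: natural log of median RNA to DNA barcode read ratio; higher means stronger binding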
assay setup: mean of both orientations
reported property: interaction score

[[record]]
binder = "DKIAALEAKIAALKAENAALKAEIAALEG [4H2393-AA]"
experimental_result = -1.23

[[record]]
binder = "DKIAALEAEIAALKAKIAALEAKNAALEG [4H2151-AA]"
experimental_result = -1.27


1. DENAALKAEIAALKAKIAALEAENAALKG [4H1636-AA]
2. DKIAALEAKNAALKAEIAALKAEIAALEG [4H2505-AA]
**Q:** Lab note: check whether 1 or 2 has the lower measured interaction score. Respond using the label that marks the chosen record.
**A:** 1
